Source of measurements: patent US8008547B2

assay: Standard protocol for determination of kcat and KM (continuous spectrophotometric assay, Acetyl CoA hydrolysis at 235 nm); format: biochemical; conditions: purified protein; about 23° C.; pH 6.8; 0.2 mM acetyl CoA; glyphosate 0.125 to 10 mM
Param threshold (1000 µM) applies to Km; output y when value >= threshold, n when value < threshold.

input: Decide: is the reported value of Km for SEQ ID NO: 354: GAT polypeptide (protein, 2_8C3, GAT polypeptide) MIEVKPINAEDTYEIRHRILRPNQPLEACMYETDLLGGTFHLGGYYRDRLISIASFHQAEHSELEGQKQYQLRGMATLEGYREQKAGSTLIRHAEELLRKKGADLLWCNARTSASGYYEKLGFSEQGEVYDIPPIGPHILMYKKLT equal to or greater than 1000 µM?
output: y

input: Tell me whether Km is at least 1000 µM here: SEQ ID NO: 272: GAT polypeptide (protein, 10_17F6, GAT polypeptide) MIEVKPINAEDTYEIRHRILRPNQPLEACKYETDLLGGTFHLGGYYRGKLVSIASFHQAEHSELEGQKQYQLRGMATLEEYREQKAGSTLIRHAEELLRKKGADLLWCNARTSASGYYKKLGFSEQGEVYDIPPVGPHILMYKKLT
output: y

input: Would you say SEQ ID NO: 415: GAT polypeptide (protein, 7_1C4, GAT polypeptide) MIEVKPINAEDTYEIRHRILRPNQPLEACMYETDLLGGTFHLGGYYRGKLISIASFHQAEHPELEGQKQYQLRGMATLEEYREQKAGSTLIRHAEELLRKKGADLLWCNARTSASGYYKKLGFSEQGGVYDIPPIGPHILMYKKLT shows Km at minimum 1000 µM?
output: y

input: Does SEQ ID NO: 359: GAT polypeptide (protein, 3B_12B1, GAT polypeptide) MIEVKPINAEDTYEIRHRILRPNQPLEACMYETDLLGGTFHLGGYYRGKLISIASFHQAEHSELEGQKQYQLRGMATLEGYREQKAGSTLIRHAEELLRKKGADLLWCNARTSASGYYKKLGFSEQGEVYDIPPIGPHILMYKKLT have a reported Km of at least 1000 µM?
output: y

input: Determine whether measured Km meets or exceeds 1000 µM for SEQ ID NO: 511: GAT polypeptide (protein, GAT1_32G1, GAT polypeptide) MIEVKPINAEDTYEIRHRILRPNQPLEACMYETDLLGGTFHLGGYYRGKLISIASFHQAEHPELEGQKQYQLRGMATLEGYREQKAGSTLIRHAEELLRKKGADLLWCNARTSVSGYYEKLGFSEQGEVYDIPPIGPHILMYKKLT
output: y

input: I'd appreciate it if you could say whether SEQ ID NO: 417: GAT polypeptide (protein, 7_2A11, GAT polypeptide) MIEVKPINAEDTYEIRHRILRPNQPLEACMYETDLLGGTFHLGGYYRGKLISIASFHQAEHSELEGQKQYQLRGMATLEGYREQKAGSTLIRHAEELLRKKGADLLWCNARTSASGYYKKLGFSEQGGVYDIPPVGPHILMYKKLT has Km at least equal to 1000 µM.
output: y

input: State whether the measured Km reaches 1000 µM, counting equality as reaching it, for SEQ ID NO: 314: GAT polypeptide (protein, 14_3B2, GAT polypeptide) MIEVKPINAEDTYEIRHRILRPNQPLEACKYETDLLRGAFHLGGYYRGKLVSIASFHQAEHPELEGQKQYQLRGMATLEGYREQKAGSTLIRHAEALLRKKGADLLWCNARTSASGYYKKLGFSEQGGVYDIPPAGPHILMYKKLT
output: n

input: Dear colleague, could you confirm whether SEQ ID NO: 459: GAT polypeptide (protein, 11_3B1, GAT polypeptide) MLEVKPINAEDTYELRHRILRPNQPIEACMFETDLLRGAFHLGGFYRGKLISIASFHQAEHSDLQGQKQYQLRGMATLEGFREQKAGSTLIRHAEEILRKRGADLLWCNARTSASGYYKRLGFSEQGEIFDTPPVGPHILMYKRLT has Km at or above 1000 µM?
output: n

input: # bool: Km of SEQ ID NO: 264: GAT polypeptide (protein, 13_12G6, GAT polypeptide) MIEVKPINAEDTYEIRHRILRPNQPLEACKYETDLLRGAFHLGGYYRGKLVSIASFHQAEHPELEGQRQYQLRGMATLEGYREQKAGSTLIRHAEELLRKKGADLLWCNARTSASGYYKKLGFSEQGEVYDIPPTGPHILMYKKLT >= 1000 µM
output: y

input: Please tell me: is the molecule SEQ ID NO: 409: GAT polypeptide (protein, 6_5G9, GAT polypeptide) MIEVKPINAEDTYEIRHRILRPNQPLEACMYETDLLGGTFHLGGYYRGKLISIASFHQAEHSELEGQKQYQLRGMATLEEYREQKAGSTLIRHAEELLRKKGADLLWCNARISASGYYKKLGFSEQGGVYDIPPVGPHILMYKKLT at or over 1000 µM in terms of Km?
output: y
